Readings of z-score for the listed compounds
# METHOD DESCRIPTION: forskolin-driven CRE-LacZ activity in PC12 – cell-based, CRE-LacZ reporter, forskolin-stimulated, primary screen (AID 1146);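 further: PC12 cells with 6xCRE LacZ reporter stimulated by forskolin 10 µM; beta-galactosidase reporter signal reflecting CREB driven transcription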
# CONDITION INFO: luminescence, 4.5 h, higher = more signal, called active from +8 up or from −8 down
Lab note: jot the number down without any unit.

Known z-score results, listed for orientation:
1) C=CC1c2cc(O)c(OC)cc2CCN1Cc1cccc(OC(F)(F)F)c1 (centres undefined)	1.28
2) O=C1C2C=CC(C(O)COCc3ccccc3)N(Nc3ccc([N+](=O)[O-])cc3)C2C(=O)N1c1ccccc1 (centres undefined)	0.788
3) CO[C@H]1O[C@H](CO)[C@@H](OC(=O)Nc2ccccc2-c2ccccc2)[C@H](OC(=O)Nc2ccccc2-c2ccccc2)[C@@H]1OC(=O)Nc1ccccc1-c1ccccc1	0.0225

Query block: Tell me the measured z-score of CC(C)CN1C(=O)[C@@]2(c3ccc([N+](=O)[O-])cc3)CC(=O)N(C3CCCCC3)[C@@H]2c2ccc(CO)cc21 , please.
Result block: 0.241

Query block: Tell me the measured z-score of [N-]=[N+]=Nc1ccccc1C[C@@]1(C(=O)N2CCCCC2)N=C(c2ccc(OCCCO)cc2)O[C@@H]1c1ccccc1N=[N+]=[N-] , please.
Result block: -0.929

Query block: Tell me the measured z-score of COc1ccc(C#Cc2ccc3c(c2)[C@]2(C(=O)N3)[C@H](c3ccc(O)cc3)N3[C@H](c4ccccc4)[C@H](c4ccccc4)OC(=O)[C@H]3[C@@H]2C(=O)N2CCc3cc(OC)c(OC)cc3C2)cc1 , please.
Result block: 0.102

Query block: Tell me the measured z-score of Cc1ccc(/C=C/C=O)cc1 , please.
Result block: 0.243

Query block: Tell me the measured z-score of COC(=O)[C@@]1(Cc2ccc(F)cc2)[C@H]2c3cc(C(=O)N(C)C)n(Cc4ccc(C)o4)c3C[C@H]2CN1C(=O)c1ccccc1 , please.
Result block: -0.554

Query block: Tell me the measured z-score of O=C(CS)NCCCCCNC(=O)[C@H]1C[C@H]2C(=O)NCC(=O)N2[C@H]1c1ccc(O)cc1 , please.
Result block: -0.684

Query block: Tell me the measured z-score of COc1ccc([Si](C)(C)[C@@H]2[C@@H](CCn3cc(CCO)nn3)O[C@]3(C(=O)N(Cc4cccc(N5C(=O)c6cccc7cccc5c67)c4)c4ccccc43)[C@H]2C)cc1 , please.
Result block: -1.45

###

# METHOD DESCRIPTION: growth modulation of vineyard yeast isolate – strain RM11-1a, OD600, basal, 24 h, primary screen (AID 1177);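 further: cultures grown under basal conditions with no added stressor; test concentration not given here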
# CONDITION INFO: S. cerevisiae RM11-1a growth, OD600, 24 h; higher = more signal, called active from +8 up or from −8 down
Readings of z-score for the listed compounds
Lab note: jot the number down without any unit.

1. COCCCNC(=O)[C@@H]1c2ccccc2C(=O)N(Cc2ccccc2OC)[C@H]1c1ccc(CO)cc1	-0.839
2. CCOC(=O)C1=CC[C@H]2C(=O)N(c3ccccc3)C(=O)[C@@H]12	-0.337
3. NC(=O)[C@@H]1[C@H]2C(=O)O[C@H](c3ccccc3)[C@H](c3ccccc3)N2[C@H](c2ccc(O)cc2)[C@@]12C(=O)Nc1ccc(C#CC3=CCCCC3)cc12	2.07

Now for the compound whose z-score we want.
Query block: Tell me the measured z-score of CCCC(=O)N(CCc1c[nH]c2ccccc12)[C@@H]1CC(C(=O)NCCO)=C[C@H](Oc2c(I)cc(CO)cc2OC)[C@H]1O , please.
Result block: 0.152
